Below, each entry is listed alongside its reported Plant response rating, Lambsquarters.
System: lambsquarters
Test: Test C pre-/postemergence herbicide test
Type: in vivo, Chenopodium album
Settings: Postemergence, 125 g ai/ha; scale 0 to 100 (0 no effect, 100 complete control)
Lab note: record just the number, no unit beside it.

# compound, Plant response rating, Lambsquarters
data = [
    ("CN1CC(c2ccc(F)c(F)c2)C(C(=O)Nc2ccccc2F)C1=O (stereo not shown) [Compound 302]", 60),
]

Request: Give the reported Plant response rating, Lambsquarters for this compound. O=C1NCC(c2cccc(OC(F)F)c2)C1C(=O)Nc1ccccc1F (stereo not shown) [Compound 223]
Result: 35

Request: Determine from records and report Plant response rating, Lambsquarters for O=C1NCC(c2cccc(Br)c2)C1C(=O)Nc1cccc(F)c1F (stereo not shown) [Compound 309]
Result: 65

Request: Provide Plant response rating, Lambsquarters value for the following compound: O=C1NCC(c2ccc(C(F)(F)F)cc2)C1C(=O)Nc1ccc(F)c(F)c1F (stereo not shown) [Compound 232]
Result: 85

Request: Determine its reported Plant response rating, Lambsquarters: O=C1NCC(c2ccccc2)C1C(=O)Nc1ccccc1F (racemic) [Compound 81]
Result: 0

Request: Identify Plant response rating, Lambsquarters associated with the compound O=C1NCC(c2cccc(C(F)(F)F)c2)C1C(=O)Nc1cccc(Cl)c1F (stereo not shown) [Compound 316]
Result: 40

Request: Specify Plant response rating, Lambsquarters for O=C1NCC(c2cccc(C(F)(F)F)c2)C1C(=O)Nc1ccc(F)cc1F (racemic) [Compound 207] and stop.
Result: 35
